Target: PTP1B (Homo sapiens, UniProt P18031)
Sequence (P18031 whole entry, species assumed): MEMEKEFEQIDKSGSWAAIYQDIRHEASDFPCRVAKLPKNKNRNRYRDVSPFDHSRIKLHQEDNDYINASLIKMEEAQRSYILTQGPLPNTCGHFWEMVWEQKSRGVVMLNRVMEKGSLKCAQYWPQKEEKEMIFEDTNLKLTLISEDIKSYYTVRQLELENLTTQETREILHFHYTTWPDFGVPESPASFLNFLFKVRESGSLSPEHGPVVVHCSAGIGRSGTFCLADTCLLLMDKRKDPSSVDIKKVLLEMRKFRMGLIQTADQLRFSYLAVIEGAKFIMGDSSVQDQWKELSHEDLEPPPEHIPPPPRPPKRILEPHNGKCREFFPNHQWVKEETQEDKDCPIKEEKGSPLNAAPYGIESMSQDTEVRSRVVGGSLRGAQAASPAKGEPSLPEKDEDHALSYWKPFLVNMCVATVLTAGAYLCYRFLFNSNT
Assay: PTP1B inhibitory assay (p-NPP substrate)
Settings: mean ± SD, n = 3; sample concentration achieving 50% of activity
pEC50: −log10 of the molar value.
readout label: pEC50

>>> test_result("C[C@]1(O)Cc2oc3cc(O)c(O)cc3c(=O)c2CO1")
"< 4.30"
>>> test_result("COc1cc(O)cc(C)c1Cc1oc(C)cc1C(=O)O")
"< 4.30"
>>> test_result("C=C1C=CC(=O)[C@]1(CO)Cc1c(C)cc(O)cc1OC")
"< 4.30"
>>> test_result("COc1cc(O)cc(C)c1CC(=O)O")
"< 4.30"
>>> test_result("COc1cc(O)cc(C)c1Cc1oc(C[C@@H](C)O)cc1C(=O)O")
"< 4.30"
>>> test_result("Cc1cc2nc3c(=O)[nH]c(=O)nc-3n(C[C@H](O)[C@H](O)[C@H](O)CO)c2cc1C")
5.05
>>> test_result("C[C@]1(O)Cc2oc3c(C(=O)O)c(O)c(O)cc3c(=O)c2CO1")
"< 4.30"
>>> test_result("O=C(O)Cc1c[nH]c2ccccc12")
4.93
>>> test_result("CC1=Cc2oc3cc(O)c(O)cc3c(=O)c2CO1")
"< 4.30"
